So I've got a bunch of binders here, and I need their Fold change values.
target: T1, human LAP-TGFB1 Fc fusion (human); assay: BLI off-rate screen
T1 construct: also called human LAP-TGFβ1-Fc; human LAP-TGFβ-Fc isoform 1
T1 sequence (chain, as listed by the source limits assumed): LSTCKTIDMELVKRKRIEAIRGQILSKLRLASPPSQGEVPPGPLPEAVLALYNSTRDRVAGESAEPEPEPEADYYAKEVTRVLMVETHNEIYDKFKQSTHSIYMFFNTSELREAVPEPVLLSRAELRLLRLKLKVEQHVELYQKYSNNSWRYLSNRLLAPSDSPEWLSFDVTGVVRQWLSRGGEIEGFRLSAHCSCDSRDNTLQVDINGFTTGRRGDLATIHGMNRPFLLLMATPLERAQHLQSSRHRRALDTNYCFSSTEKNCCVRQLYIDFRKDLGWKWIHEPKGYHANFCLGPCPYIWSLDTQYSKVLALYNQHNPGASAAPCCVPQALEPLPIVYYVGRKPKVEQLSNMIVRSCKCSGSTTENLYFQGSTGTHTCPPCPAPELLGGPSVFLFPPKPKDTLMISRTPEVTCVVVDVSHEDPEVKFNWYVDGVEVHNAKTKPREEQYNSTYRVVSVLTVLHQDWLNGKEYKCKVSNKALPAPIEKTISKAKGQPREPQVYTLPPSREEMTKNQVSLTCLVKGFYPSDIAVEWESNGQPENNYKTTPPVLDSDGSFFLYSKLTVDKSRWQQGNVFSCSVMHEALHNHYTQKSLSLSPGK

Examples from the recorded data:
>>> result("VH G57E (63BIT) (Fab, V domains shown, Light chain: parental 20E6 LC, implied) VH: EVQLVQSGAEVKKPGASVKVSCKASGYTFTSYWMHWVRQAPGQGLEWMGRIDPQSGEIKYAQKFQGRATLTVDTSTSTAYMELSRLRSDDTAVYYCARWDYGGYFDVWGQGTLVTVSS VL: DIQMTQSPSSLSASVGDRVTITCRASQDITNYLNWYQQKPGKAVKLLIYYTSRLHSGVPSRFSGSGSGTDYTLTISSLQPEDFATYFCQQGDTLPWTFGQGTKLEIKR")
"1.1 fold"
>>> result("VL T30D (37BIT) (Fab, V domains shown, Heavy chain: parental 20E6 Fab HC, implied) VH: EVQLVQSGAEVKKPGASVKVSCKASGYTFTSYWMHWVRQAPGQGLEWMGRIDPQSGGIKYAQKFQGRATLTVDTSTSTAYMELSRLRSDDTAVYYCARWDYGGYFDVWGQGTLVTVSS VL: DIQMTQSPSSLSASVGDRVTITCRASQDIDNYLNWYQQKPGKAVKLLIYYTSRLHSGVPSRFSGSGSGTDYTLTISSLQPEDFATYFCQQGDTLPWTFGQGTKLEIKR")
"1.1 fold"
>>> result("VL R53E (31BIT) (Fab, V domains shown, Heavy chain: parental 20E6 Fab HC, implied) VH: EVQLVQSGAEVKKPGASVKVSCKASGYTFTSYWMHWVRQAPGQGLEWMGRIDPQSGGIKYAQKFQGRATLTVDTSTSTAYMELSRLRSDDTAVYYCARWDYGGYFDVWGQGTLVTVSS VL: DIQMTQSPSSLSASVGDRVTITCRASQDITNYLNWYQQKPGKAVKLLIYYTSELHSGVPSRFSGSGSGTDYTLTISSLQPEDFATYFCQQGDTLPWTFGQGTKLEIKR")
"1.5 fold"
>>> result("VH S55E (26BIT) (Fab, V domains shown, Light chain: parental 20E6 LC, implied) VH: EVQLVQSGAEVKKPGASVKVSCKASGYTFTSYWMHWVRQAPGQGLEWMGRIDPQEGGIKYAQKFQGRATLTVDTSTSTAYMELSRLRSDDTAVYYCARWDYGGYFDVWGQGTLVTVSS VL: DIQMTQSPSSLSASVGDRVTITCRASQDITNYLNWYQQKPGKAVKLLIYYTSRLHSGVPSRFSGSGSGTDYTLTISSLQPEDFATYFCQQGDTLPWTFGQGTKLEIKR")
"0.8 fold"

Next:
Entry under test: VH G57D (27BIT) (Fab, V domains shown, Light chain: parental 20E6 LC, implied) VH: EVQLVQSGAEVKKPGASVKVSCKASGYTFTSYWMHWVRQAPGQGLEWMGRIDPQSGDIKYAQKFQGRATLTVDTSTSTAYMELSRLRSDDTAVYYCARWDYGGYFDVWGQGTLVTVSS VL: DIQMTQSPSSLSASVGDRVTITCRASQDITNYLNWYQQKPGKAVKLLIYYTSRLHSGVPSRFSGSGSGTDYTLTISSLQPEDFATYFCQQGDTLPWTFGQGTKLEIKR . Its Fold change was 1.3 fold
